- tested on: T1, SARS-CoV-2 spike protein on recombinant CHO K1 cells (SARS-CoV-2, UniProt P0DTC2 14-1273)
- T1 construct: whole, on cells
- procedure summary: FACS on CHO K1 cells
quantity kind: EC50 (nM)
Quick reminder: number only, in nM, skip the unit.

Use the examples below as a reference point.
>>> experimental_result("10B8 VHH-Fc (Fc fusion) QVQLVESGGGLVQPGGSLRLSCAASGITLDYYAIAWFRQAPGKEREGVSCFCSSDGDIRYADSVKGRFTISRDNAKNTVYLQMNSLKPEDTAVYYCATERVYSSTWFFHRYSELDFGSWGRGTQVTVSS")
0.19
>>> experimental_result("1E4 VHH-Fc (Fc fusion) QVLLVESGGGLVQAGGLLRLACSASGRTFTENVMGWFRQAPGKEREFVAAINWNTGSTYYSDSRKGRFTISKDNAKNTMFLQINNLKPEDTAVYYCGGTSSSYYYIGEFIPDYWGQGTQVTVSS")
0.06
>>> experimental_result("3D4 VHH-Fc (Fc fusion) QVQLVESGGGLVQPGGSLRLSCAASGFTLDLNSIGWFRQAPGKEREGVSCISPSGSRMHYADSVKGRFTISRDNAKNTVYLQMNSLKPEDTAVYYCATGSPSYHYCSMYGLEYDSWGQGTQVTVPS")
0.15

Note: attention shifts to another entry.
Q: // EC50 lookup, key: 11F8 VHH-Fc (Fc fusion) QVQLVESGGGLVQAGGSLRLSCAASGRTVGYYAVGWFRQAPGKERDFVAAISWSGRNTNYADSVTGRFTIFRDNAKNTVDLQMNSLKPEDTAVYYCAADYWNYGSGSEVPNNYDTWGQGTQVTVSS
Ans: 0.08
